Source listed as paper PMC10855879.

Assay: Water solubility by quantitative 1H-NMR in D2O, alone or with cyclodextrin
Assay type: physicochemical
Conditions: D2O with γ-cyclodextrin, 25 °C, aqueous with cosolvent or surfactant or cyclodextrin, thermodynamic from solid; D2O, 298 K, γ-CD 10 mM; read-out: Water Solubility, Compound + γ-CD
Procedure: For all the Se-NSAID derivatives, the formation of inclusion complexes either with β- or γ-CDs was evaluated by quantitative proton nuclear magnetic resonance (^1H-NMR) spectroscopy (Figures S1–S40 in Supplementary Materials). […] Additionally, given the size of the studied molecules, a larger CD such as γ-CDs was also evaluated. The experimental formation of inclusion complexes with either β-CD or γ-CD was evaluated via quantitative ^1H-NMR spectroscopy. […]
Outcome: 1.0 for solubility of at least 40 µM; 0.0 for anything lower.

{"molecule": "COc1ccc2cc(C(C)C(=O)[Se]CCC#N)ccc2c1 (stereo not shown) [I.3e]", "label_value": 1.0}
{"molecule": "COc1ccc2c(c1)c(CC(=O)[Se]CC(=O)O)c(C)n2C(=O)c1ccc(Cl)cc1 [I.4a]", "label_value": 1.0}
{"molecule": "COc1ccc2c(c1)c(CC(=O)[Se]CC#N)c(C)n2C(=O)c1ccc(Cl)cc1 [I.4d]", "label_value": 0.0}
{"molecule": "COC(=O)C[Se]C(=O)Cc1c(C)n(C(=O)c2ccc(Cl)cc2)c2ccc(OC)cc12 [I.4b]", "label_value": 1.0}
{"molecule": "COc1ccc2c(c1)c(CC(=O)[Se]CCC#N)c(C)n2C(=O)c1ccc(Cl)cc1 [I.4e]", "label_value": 1.0}
{"molecule": "COc1ccc2cc([C@H](C)C(=O)[Se][Se]C(=O)[C@@H](C)c3ccc4cc(OC)ccc4c3)ccc2c1 [II.3]", "label_value": 0.0}

Lookup: Kindly determine if solubility recorded for CC(=O)Oc1ccccc1C(=O)[Se][Se]C(=O)c1ccccc1OC(C)=O [II.1] is above or exactly 40 µM.
Found: 0.0

Lookup: Kindly determine if solubility recorded for COc1ccc2c(c1)c(CC(=O)[Se][Se]C(=O)Cc1c(C)n(C(=O)c3ccc(Cl)cc3)c3ccc(OC)cc13)c(C)n2C(=O)c1ccc(Cl)cc1 [II.2] is above or exactly 40 µM.
Found: 0.0

Lookup: Kindly determine if solubility recorded for CC(C)Cc1ccc(C(C)C(=O)[Se][Se]C(=O)C(C)c2ccc(CC(C)C)cc2)cc1 (stereo not shown) [II.5] is above or exactly 40 µM.
Found: 1.0

Lookup: Kindly determine if solubility recorded for CC(C(=O)[Se][Se]C(=O)C(C)c1cccc(C(=O)c2ccccc2)c1)c1cccc(C(=O)c2ccccc2)c1 (stereo not shown) [II.4] is above or exactly 40 µM.
Found: 0.0
